tested on: T1, TNF-alpha (human, UniProt P01375 77-233)
T1 construct: also called TNFα; TNF-α
T1 sequence (P01375 77-233 limits assumed): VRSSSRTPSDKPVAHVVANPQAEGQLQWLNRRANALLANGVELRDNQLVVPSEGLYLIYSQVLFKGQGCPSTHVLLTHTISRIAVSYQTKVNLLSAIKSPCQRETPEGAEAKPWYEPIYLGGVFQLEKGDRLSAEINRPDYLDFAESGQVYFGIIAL
test name: phage ELISA
recorded endpoint: binding result

binder="I061E07 (scFv) scFv: QVQLQQSGAEVKKTGASVKVSCKASGYIFADYYVHWVRQAAGQGLEWMGWINPNTGSTKYAQKFQDRVTMTRDTSIKTVYMELRRLRSDDTALYYCARATYDPLTGYSFDGFDIWGKGTMVTVSSGGGGSGGGGSGGGGSQSVLTQPPSASGTPGQRVTISCSGSSSNIGSNTVNWYQRLPGAAPQLLIYNNDQRPSGIPDRFSGSKSGTSGSLVISGLQSEDEADYYCASWDDSLNGRVFGGGTKLTVLG" recorded_endpoint="binding result" reported_result="no binding"
binder="I018H08 (scFv, also called 1018H08) scFv: QVQLQQSGAEVKKPGASVNVSCKASGYTFTKYTMHWVRQAPGQGPEWMGWINGGSGDTKYSRKFQGRVTITKDTSASAAYMELSSLGSEDTALYYCARATYDPLTGYSFDGFDIWGQGTMVTVSSGGGGSGGGGSGGGGSQSVLTQPASVSGSPGQSITISCTGTSSDVGGYNYVSWYQQHPGKAPKLMIYEGSKRPSGVSNRFSGSKSGNTASLTISGLQAEDEADYYCSSYTTRSTRVFGGGTKLTILG" recorded_endpoint="binding result" reported_result="no binding"
binder="I003F12S (scFv) scFv: QVQLLQSAAELKKPGQSLKISCKGSGFTFTTYWIGWVRQLPGKGLEWMGIIYPGDSHTTYSPSFEGHVNISVDKSINTAYLQWSSLKASDTAMYYCARHDDDVLTGYYFESWGQGTMVTVSSGGGGSGGGGSGGGGSQSVLTQPASVSGSPGQSITISCTGTSSDVGGYNYVSWYQQHPGKAPKLMIYEGSKRPSGVSNRFSGSKSGNTASLTISGLQAEDEADYYCSSYTTRSTRVFGGGTKLTVLG" recorded_endpoint="binding result" reported_result="no binding"
